Target: CLR/RAMP3 receptor (UniProt Q16602 23-461; O60896 24-148, limits assumed)
Sequence (Q16602 23-461 limits assumed, chain 1 of 2): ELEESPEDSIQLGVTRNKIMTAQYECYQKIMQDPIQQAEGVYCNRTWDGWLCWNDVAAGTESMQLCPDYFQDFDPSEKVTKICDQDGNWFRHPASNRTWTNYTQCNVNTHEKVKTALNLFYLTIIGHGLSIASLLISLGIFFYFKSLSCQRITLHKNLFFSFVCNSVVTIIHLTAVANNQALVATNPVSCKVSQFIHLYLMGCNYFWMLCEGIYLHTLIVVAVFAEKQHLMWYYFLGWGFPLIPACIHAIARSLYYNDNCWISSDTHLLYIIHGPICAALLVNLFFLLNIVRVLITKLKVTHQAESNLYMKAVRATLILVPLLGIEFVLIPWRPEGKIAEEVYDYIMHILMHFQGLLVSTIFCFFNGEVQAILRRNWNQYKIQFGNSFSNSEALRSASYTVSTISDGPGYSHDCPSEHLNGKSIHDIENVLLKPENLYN
Sequence (O60896 24-148 limits assumed, chain 2 of 2): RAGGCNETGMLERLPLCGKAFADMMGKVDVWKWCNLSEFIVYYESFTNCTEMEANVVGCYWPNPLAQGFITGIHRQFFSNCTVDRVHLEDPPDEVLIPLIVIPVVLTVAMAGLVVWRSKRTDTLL
Experiment: cell-based or functional assay
Non-standard residues stand in square brackets, D forms with d. No end group written: not given here. *: point of attachment. Palmitoyl = CCCCCCCCCCCCCCCC(=O)*; AEEA = NCCOCCOCC(=O)O
Just a reminder that ties go to condition not met: only IC50 (nM), CLR/RAMP3 cAMP antagonist assay strictly below 9 nM counts as condition met.

- BINDER: "Palmitoyl-KVQKLAHQIYQFTDKDVAPRSKISPQGY-NH2 [SEQ ID NO: 119]"
  LABEL VALUE: "condition met"

Here's an entry: Ac-TVQKLAHRLWQLMGPDKDNVAPRSKISPQGY-NH2 [SEQ ID NO: 116] . Is its IC50 (nM), CLR/RAMP3 cAMP antagonist assay below 9 nM?
condition not met

Here's an entry: [AEEA]K(Palmitoyl)VQKLAHQIYQFTDKDSAPVDPSSPHSY-NH2 [SEQ ID NO: 112] . Is its IC50 (nM), CLR/RAMP3 cAMP antagonist assay below 9 nM?
condition met

Here's an entry: Ac-VTHRLAGLLSRFTDKDKDNVAPRSKISPQGY-NH2 [SEQ ID NO: 115] . Is its IC50 (nM), CLR/RAMP3 cAMP antagonist assay below 9 nM?
condition not met
